tested.target: BCL-XL (Homo sapiens)
Construct: endogenous in cells; host or cells: MOLT-4
experiment.summary: BCL-XL degradation assay, western blot in MOLT-4 cells, 16 h
Format: cell-based
assay.setup: western blot, MOLT-4 cells, 16 h; read-out: Bcl-xL WB in MOLT-4 degradation 16 h: Average Dmax %
Protocol: Compounds treatment: compounds were reconstituted in DMSO to make a stock concentration of 10 mM. MOLT-4 cells were maintained in RPMI-1640+10% FBS+1% Penicillin-Streptomycin. […] Supernatants were collected and protein concentration was measured by BCA assay kit (Solarbio. PC0020-500) following the manufacturer's protocol. […] The western blot images were obtained using Odyssey Imaging System and quantified using Image Studio Lite Ver 5.2 software. […]
measured.parameter: Dmax

Record request: Dmax value, item `Cc1ncsc1-c1ccc([C@H](C)NC(=O)[C@@H]2C[C@@H](O)CN2C(=O)[C@@H](NC(=O)CCCC(=O)NCCOc2ccc(C(=O)Nc3nc4ccccc4s3)c3c2CCN(c2ccc(-c4cnn(CC5CCCCC5)c4C)c(C(=O)O)n2)C3)C(C)(C)C)cc1`
50 to 75%

Kindly consider the entry below.
I would be grateful if you could share the reported Dmax for `Cc1cc(N(CCN(C)C(=O)CCCCCCCCC(=O)N[C@H](C(=O)N2C[C@H](O)C[C@H]2C(=O)N[C@@H](C)c2ccc(-c3scnc3C)cc2)C(C)(C)C)c2ccc(-c3cnn(CC4CCCCC4)c3C)c(C(=O)O)n2)nnc1Nc1nc2ccccc2s1` .
< 50%

----------
Provide the reported DC50 of each item.
tested.target: BCL-XL (Homo sapiens, UniProt Q07817)
Construct: endogenous in cells; host or cells: MOLT-4
Sequence (Q07817 whole entry): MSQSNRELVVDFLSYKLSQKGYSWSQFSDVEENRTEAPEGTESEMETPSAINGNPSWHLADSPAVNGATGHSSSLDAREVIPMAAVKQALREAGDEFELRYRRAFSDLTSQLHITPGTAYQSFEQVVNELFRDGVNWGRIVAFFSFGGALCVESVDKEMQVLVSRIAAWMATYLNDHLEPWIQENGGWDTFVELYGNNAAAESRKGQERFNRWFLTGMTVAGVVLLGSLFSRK
experiment.summary: BCL-XL degradation assay, western blot in MOLT-4 cells, 16 h
Type: cell-based
assay.setup: western blot, MOLT-4 cells, 16 h; read-out: Bcl-xL WB in MOLT-4 degradation 16 h: Mean external-Abs DC50

Sample answers from the record:
Quick one: DC50 of Cc1ncsc1-c1ccc(CNC(=O)[C@@H]2C[C@@H](O)CN2C(=O)[C@@H](NC(=O)C2(F)CC2)C(C)(C)C)c(O[C@H]2CC[C@H](N3CCN(CC[C@H](CSc4ccccc4)Nc4ccc(S(=O)(=O)NC(=O)c5ccc(N6CCN(CC7=C(c8ccc(Cl)cc8)CCC(C)(C)C7)CC6)cc5)cc4S(=O)(=O)C(F)(F)F)CC3)CC2)c1 (single isomer, unassigned) ?
> 1000 nM

Fill in: DC50 of `Cc1ncsc1-c1ccc([C@H](C)NC(=O)[C@@H]2C[C@@H](O)CN2C(=O)[C@@H](NC(=O)CCCCCS(=O)(=O)NC(=O)c2nc(N3CCc4cccc(C(=O)Nc5nc6ccccc6s5)c4C3)sc2CCCOc2ccc(C#CCN(C)C)cc2F)C(C)(C)C)cc1` is ___
< 10 nM

Please supply DC50 for each of the following items, keeping them in order.
1. Cc1ncsc1-c1ccc([C@H](C)NC(=O)[C@@H]2C[C@@H](O)CN2C(=O)[C@@H](NC(=O)CCCCCC(=O)N(C)CC#Cc2ccc(OCCCc3sc(N4CCc5cccc(C(=O)Nc6nc7ccccc7s6)c5C4)nc3C(=O)O)c(F)c2)C(C)(C)C)cc1
2. Cc1ncsc1-c1ccc(CNC(=O)[C@@H]2C[C@@H](O)CN2C(=O)[C@@H](NC(=O)C2(F)CC2)C(C)(C)C)c(OCCCCCC(=O)NCCOc2ccc(C(=O)Nc3nc4ccccc4s3)c3c2CCN(c2ccc(-c4cnn(CC5CCCCC5)c4C)c(C(=O)O)n2)C3)c1
3. Cc1ncsc1-c1ccc(CNC(=O)[C@@H]2C[C@@H](O)CN2C(=O)[C@@H](NC(=O)C2(C#N)CC2)C(C)(C)C)c(OCC(=O)N2CCN(CC[C@H](CSc3ccccc3)Nc3ccc(S(=O)(=O)NC(=O)c4ccc(N5CCN(CC6=C(c7ccc(Cl)cc7)CCC(C)(C)C6)CC5)cc4)cc3S(=O)(=O)C(F)(F)F)CC2)c1
4. C#Cc1ccc(CNC(=O)[C@@H]2C[C@@H](O)CN2C(=O)[C@@H](NC(=O)CCCS(=O)(=O)NC(=O)c2nc(N(C)c3cc(C)c(Nc4nc5ccccc5s4)nn3)ccc2-c2cnn(CC3CCCCC3)c2C)C(C)(C)C)cc1

1. 10 to 100 nM
2. > 1000 nM
3. 10 to 100 nM
4. 100 to 500 nM

Each of the following entries comes with a recorded value; kindly state DC50 for each.
1. C#Cc1ccc(CNC(=O)[C@@H]2C[C@@H](O)CN2C(=O)[C@@H](NC(=O)CCCCS(=O)(=O)NC(=O)c2nc(N(C)c3cc(C)c(Nc4nc5ccccc5s4)nn3)ccc2-c2cnn(CC3CCCCC3)c2C)C(C)(C)C)cc1
2. Cc1ncsc1-c1ccc([C@H](C)NC(=O)[C@@H]2C[C@@H](O)CN2C(=O)[C@@H](NC(=O)C2CCN(c3ccc(S(=O)(=O)NC(=O)c4nc(N5CCc6cccc(C(=O)Nc7nc8cccnc8s7)c6C5)ccc4-c4cnn(CC5CCCCC5)c4C)cc3)CC2)C(C)(C)C)cc1

["100 to 500 nM", "< 10 nM"]

----------
tested.target: BCL-XL (Homo sapiens, UniProt Q07817)
Construct: endogenous in cells; host or cells: MOLT-4
experiment.summary: Bcl-xL ELISA degradation in MOLT-4 cells, 6 h
Type: cell-based
assay.setup: read-out: Bcl-xL ELISA in MOLT-4 degradation 6 h: Mean external-Abs DC50
Would you kindly list DC50 for each of these compounds?

The examples below pair each entry with its known result.
Which measured DC50 value corresponds to `Cc1cc(N(C)c2ccc(-c3cnn(CC45CC6CC(CC(C6)C4)C5)c3C)c(C(=O)NS(=O)(=O)CCCCCC(=O)N[C@H](C(=O)N3C[C@H](O)C[C@H]3C(=O)NCc3ccc(-c4scnc4C)cc3)C(C)(C)C)n2)nnc1Nc1nc2cccnc2s1` ?
0.01 to 0.1 µM

Would you mind telling me what DC50 value was observed for `C#Cc1ccc(CNC(=O)[C@@H]2C[C@@H](O)CN2C(=O)[C@@H](NC(=O)CCCCCS(=O)(=O)NC(=O)c2nc(N3CCc4cccc(C(=O)Nc5nc6ccccc6s5)c4C3)ccc2-c2cnn(CC(C)(C)C)c2C)C(C)(C)C)cc1` ?
0.01 to 0.1 µM

Would you mind telling me what DC50 value was observed for `Cc1cc(N(C)c2ccc(-c3cnn(CC45CC6CC(CC(C6)C4)C5)c3C)c(C(=O)NS(=O)(=O)CCCCC(=O)N[C@H](C(=O)N3C[C@H](O)C[C@H]3C(=O)NCc3ccc(-c4scnc4C)cc3)C(C)(C)C)n2)nnc1Nc1nc2ccccc2s1` ?
< 0.01 µM

We next turn to a different compound, shown below.
Any idea what DC50 was measured for `C#Cc1ccc([C@H](CO)NC(=O)[C@@H]2C[C@@H](O)CN2C(=O)[C@@H](NC(=O)CCc2ccc(S(=O)(=O)NC(=O)c3nc(N4CCc5cccc(C(=O)Nc6nc7cccnc7s6)c5C4)ccc3-c3cnn(CC4CCCCC4)c3C)cc2)C(C)(C)C)cc1` ?
0.01 to 0.1 µM

----------
tested.target: BCL-XL (Homo sapiens, UniProt Q07817)
Construct: endogenous in cells; host or cells: MOLT-4
experiment.summary: Bcl-xL ELISA degradation in MOLT-4 cells, 6 h
Type: cell-based
Experimental: The letter codes for BCL-XL DC50 include: A (<0.01 μM); B (0.01-0.1 μM); C (>[…]); D (>0.5-1.0 μM); and E (>1.0 μM). The letter codes for Dmax % include A (>75%); B (50 to 75%); C (<50%).
Exercise: for every item that follows, state its recorded Dmax.

Provide the reported Dmax of each entry below, same order.
1. COc1nn(C)c2ccc(CNC(=O)[C@@H]3C[C@@H](O)CN3C(=O)[C@@H](NC(=O)CCCCCS(=O)(=O)NC(=O)c3nc(N4CCc5cccc(C(=O)Nc6nc7cccnc7s6)c5C4)ccc3-c3cnn(CC4CCCCC4)c3C)C(C)(C)C)cc12
2. Cc1ncsc1-c1ccc(CNC(=O)[C@@H]2C[C@@H](O)CN2C(=O)[C@@H](NC(=O)C2(F)CC2)C(C)(C)C)c(OCCN2CC3(C2)CN(C(=O)c2nc(N4CCc5cccc(C(=O)Nc6nc7ccccc7s6)c5C4)ccc2-c2cnn(CC4CCCCC4)c2C)C3)c1
3. Cc1ncsc1-c1ccc([C@H](C)NC(=O)[C@@H]2C[C@@H](O)CN2C(=O)[C@@H](NC(=O)CCCCCCC(=O)N2CCN(C[C@@]3(C)CCC(c4ccc(Cl)cc4)=C(CN4CCN(c5ccc(C(=O)NS(=O)(=O)c6ccc(N[C@H](CCN7CCOCC7)CSc7ccccc7)c(S(=O)(=O)C(F)(F)F)c6)cc5)CC4)C3)CC2)C(C)(C)C)cc1
4. Cc1ncsc1-c1ccc(CNC(=O)[C@@H]2C[C@H](O)CN2C(=O)[C@@H](NC(=O)C2(F)CC2)C(C)(C)C)c(OCCCCCS(=O)(=O)NC(=O)c2nc(N3CCc4cccc(C(=O)Nc5nc6ccccc6s5)c4C3)ccc2-c2cnn(CC34CC5CC(CC(C5)C3)C4)c2C)c1
5. Cc1ncsc1-c1ccc([C@H](C)NC(=O)[C@@H]2C[C@@H](O)CN2C(=O)[C@H](NC(=O)CCCCCS(=O)(=O)NC(=O)c2nc(N3CCc4cccc(C(=O)Nc5nc6ccccc6s5)c4C3)ccc2-c2cnn(CC3CCCCC3)c2C)C(C)(C)CCO)cc1
6. Cc1ncsc1-c1ccc([C@H](C)NC(=O)[C@@H]2C[C@@H](O)CN2C(=O)[C@@H](NC(=O)N2CC(c3ccc(S(=O)(=O)NC(=O)c4nc(N5CCc6cccc(C(=O)Nc7nc8ccccc8s7)c6C5)ccc4-c4cnn(CC5CCCCC5)c4C)cc3)C2)C(C)(C)C)cc1
7. Cc1ncsc1-c1ccc(CNC(=O)[C@@H]2C[C@@H](O)CN2C(=O)[C@H](c2cc(N3CC4(CN(C(=O)CCCCC(=O)N(C)CC#Cc5ccc(OCCCc6ccc(N7CCc8cccc(C(=O)Nc9nc%10ccccc%10s9)c8C7)nc6C(=O)O)c(F)c5)C4)C3)no2)C(C)C)cc1

1. > 75%
2. < 50%
3. 50 to 75%
4. 50 to 75%
5. > 75%
6. 50 to 75%
7. < 50%

// input: 5 compounds below; output: Dmax for each
1. C#Cc1ccc(CNC(=O)[C@@H]2C[C@@H](O)CN2C(=O)[C@@H](NC(=O)CCCS(=O)(=O)NC(=O)c2nc(N3CCc4cccc(C(=O)Nc5nc6cccnc6s5)c4C3)ccc2-c2cnn(CC3CCCCC3)c2C)C(C)(C)C)cc1
2. Cc1ncsc1-c1ccc(CNC(=O)[C@@H]2C[C@@H](O)CN2C(=O)[C@@H](NC(=O)CCCCCC(=O)N2CCN(CC[C@H](CSc3ccccc3)Nc3ccc(S(=O)(=O)NC(=O)c4ccc(N5CCN(CC6=C(c7ccc(Cl)cc7)CCC(C)(C)C6)CC5)cc4)cc3S(=O)(=O)C(F)(F)F)CC2)C(C)(C)C)cc1
3. Cc1cc(N(C)c2ccc(-c3cnn(CC45CC6CC(CC(C6)C4)C5)c3C)c(C(=O)NS(=O)(=O)CCCC(=O)N[C@H](C(=O)N3C[C@H](O)C[C@H]3C(=O)N[C@@H](C)c3ccc(-c4scnc4C)cc3)C(C)(C)C)n2)nnc1Nc1nc2cccnc2s1
4. C#Cc1ccc(CNC(=O)[C@@H]2C[C@@H](O)CN2C(=O)[C@@H](c2cc(N3CCN(c4ccc(S(=O)(=O)NC(=O)c5nc(N6CCc7cccc(C(=O)Nc8nc9ccccc9s8)c7C6)ccc5-c5cnn(CC6CCCCC6)c5C)cc4)CC3)no2)C(C)C)cc1
5. Cc1cc(N(C)c2ccc(-c3cnn(CC45CC6CC(CC(C6)C4)C5)c3C)c(C(=O)NS(=O)(=O)CCCCCC(=O)N[C@H](C(=O)N3C[C@H](O)C[C@H]3C(=O)N[C@@H](C)c3ccc(C#N)cc3)C(C)(C)C)n2)nnc1Nc1nc2ccccc2s1

> 75%
< 50%
> 75%
> 75%
> 75%
